test-target: Ecdysone receptor (Bombyx mori) (UniProt P49881)
Sequence (whole entry): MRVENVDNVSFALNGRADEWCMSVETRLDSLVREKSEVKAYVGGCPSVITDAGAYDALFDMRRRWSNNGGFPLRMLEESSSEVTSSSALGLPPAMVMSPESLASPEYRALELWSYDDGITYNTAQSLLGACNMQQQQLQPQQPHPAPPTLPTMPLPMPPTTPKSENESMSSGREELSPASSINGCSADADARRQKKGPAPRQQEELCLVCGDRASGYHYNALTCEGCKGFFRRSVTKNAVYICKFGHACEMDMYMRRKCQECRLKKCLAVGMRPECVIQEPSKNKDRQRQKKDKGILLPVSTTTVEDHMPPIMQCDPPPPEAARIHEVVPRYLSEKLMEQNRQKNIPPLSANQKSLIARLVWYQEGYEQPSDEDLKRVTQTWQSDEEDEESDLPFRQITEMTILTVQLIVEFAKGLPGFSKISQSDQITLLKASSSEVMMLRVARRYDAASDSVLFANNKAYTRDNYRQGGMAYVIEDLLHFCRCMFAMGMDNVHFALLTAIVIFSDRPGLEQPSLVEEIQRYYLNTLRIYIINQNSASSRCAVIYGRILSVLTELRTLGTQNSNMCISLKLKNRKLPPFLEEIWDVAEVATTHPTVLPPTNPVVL
assay-protocol: Agonist activity against Bombyx mori ecdysone receptor
Format: functional

>  <compound>
COc1cccc(C(=O)NC(C)(C(=O)c2ccc(C)cc2)C(C)C)c1C (stereo unspecified)

>  <test-target>
Ecdysone receptor (Bombyx mori) (UniProt P49881)

>  <Fold induction>
31

$$$$
>  <compound>
COc1cccc(C(=O)NC(C)(C(=O)c2cccc(C)c2)C(C)C)c1C (stereo unspecified)

>  <test-target>
Ecdysone receptor (Bombyx mori) (UniProt P49881)

>  <Fold induction>
370

$$$$
>  <compound>
CCC(CC)(NC(=O)c1cccc(OC)c1C)C(=O)c1ccccc1

>  <test-target>
Ecdysone receptor (Bombyx mori) (UniProt P49881)

>  <Fold induction>
11

$$$$
>  <compound>
COc1cccc(C(=O)NC(C)(C)C(=O)c2ccccc2)c1

>  <test-target>
Ecdysone receptor (Bombyx mori) (UniProt P49881)

>  <Fold induction>
1

$$$$
>  <compound>
CCC(CC)(NC(=O)c1cccc(OC)c1C)C(=O)c1ccccc1OC

>  <test-target>
Ecdysone receptor (Bombyx mori) (UniProt P49881)

>  <Fold induction>
384

$$$$
>  <compound>
COc1cccc(C(=O)NC(C)(C(=O)c2cc(C)cc(C)c2)C(C)C)c1C (stereo unspecified)

>  <test-target>
Ecdysone receptor (Bombyx mori) (UniProt P49881)

>  <Fold induction>
751

$$$$
>  <compound>
CC(C)(NC(=O)c1ccc2c(c1)OCO2)C(=O)c1ccccc1

>  <test-target>
Ecdysone receptor (Bombyx mori) (UniProt P49881)

>  <Fold induction>
1

$$$$
>  <compound>
CCC(CC)(NC(=O)c1cccc(OC)c1C)C(=O)c1ccc(F)c(C)c1

>  <test-target>
Ecdysone receptor (Bombyx mori) (UniProt P49881)

>  <Fold induction>
223

$$$$
>  <compound>
COc1ccc(C(=O)C2(NC(=O)c3cccc(OC)c3C)CCCC2)cc1

>  <test-target>
Ecdysone receptor (Bombyx mori) (UniProt P49881)

>  <Fold induction>
5

$$$$
>  <compound>
CC(C)(NC(=O)c1ccccc1)C(=O)c1ccccc1

>  <test-target>
Ecdysone receptor (Bombyx mori) (UniProt P49881)

>  <Fold induction>
1

$$$$
>  <compound>
CCC(CC)(NC(=O)c1cccc(OC)c1C)C(=O)c1ccc(C)cc1

>  <test-target>
Ecdysone receptor (Bombyx mori) (UniProt P49881)

>  <Fold induction>
8

$$$$

====

Recorded EC50 (transactivation) by entry
Tested on: HEK293
assay-protocol: Dose response transactivation assay result expressed as dose affording 50% of max transactivation
Type: functional
cond: Homo sapiens, read-out: LC50
assay-readout: EC50 (transactivation) (µM)

>  <structure>
COc1cccc(C(=O)NC2(C(=O)c3ccc(F)cc3)CCCC2)c1C

>  <numeric-value>
15

$$$$
>  <structure>
COc1cccc(C(=O)NC2(C(=O)c3ccc(F)c(C)c3)CCCC2)c1C

>  <numeric-value>
3.5

$$$$
>  <structure>
COc1cccc(C(=O)NC2(C(=O)c3cc(C)cc(C)c3)CCCC2)c1C

>  <numeric-value>
1.9

$$$$
>  <structure>
CCC(CC)(NC(=O)c1cccc(OC)c1C)C(=O)c1cccc(C)c1

>  <numeric-value>
6.6

$$$$
>  <structure>
CCC(CC)(NC(=O)c1cccc(OC)c1C)C(=O)c1cc(C)cc(C)c1

>  <numeric-value>
4.5

$$$$

====

Listed here are compounds together with their documented EC50 (transactivation).
Tested on: HEK293
assay-protocol: Dose response transactivation assay result expressed as dose affording 50% of max transactivation
Assay type: functional
cond: Homo sapiens, read-out: LC50

>  <compound>
CCC(CC)(NC(=O)c1cccc(OC)c1C)C(=O)c1ccc(F)cc1

>  <EC50 (transactivation)>
13.7 µM

$$$$
>  <compound>
COc1cccc(C(=O)C(C)(NC(=O)c2cccc(OC)c2C)C(C)C)c1 (stereo unspecified)

>  <EC50 (transactivation)>
25.5 µM

$$$$
>  <compound>
COc1cccc(C(=O)NC(C)(C(=O)c2ccccc2C)C(C)C)c1C (stereo unspecified)

>  <EC50 (transactivation)>
18 µM

$$$$
>  <compound>
COc1cccc(C(=O)NC2(C(=O)c3cccc(C)c3)CCCC2)c1C

>  <EC50 (transactivation)>
3.4 µM

$$$$
>  <compound>
COc1cccc(C(=O)NC(C)(C(=O)c2cc(C)cc(C)c2)C(C)C)c1C (stereo unspecified)

>  <EC50 (transactivation)>
2.1 µM

$$$$
>  <compound>
COc1ccccc1C(=O)C1(NC(=O)c2cccc(OC)c2C)CCCC1

>  <EC50 (transactivation)>
5.2 µM

$$$$
>  <compound>
COc1cccc(C(=O)NC(C)(C(=O)c2ccccc2)C(C)C)c1C (stereo unspecified)

>  <EC50 (transactivation)>
33.3 µM

$$$$
>  <compound>
COc1ccccc1C(=O)C(C)(NC(=O)c1cccc(OC)c1C)C(C)C (stereo unspecified)

>  <EC50 (transactivation)>
15 µM

$$$$
>  <compound>
CCC(CC)(NC(=O)c1cccc(OC)c1C)C(=O)c1cccc(OC)c1

>  <EC50 (transactivation)>
33.3 µM

$$$$
>  <compound>
COc1cccc(C(=O)NC(C)(C(=O)c2ccc(C)cc2)C(C)C)c1C (stereo unspecified)

>  <EC50 (transactivation)>
20 µM

$$$$
>  <compound>
CCC(CC)(NC(=O)c1cccc(OC)c1C)C(=O)c1ccc(F)c(C)c1

>  <EC50 (transactivation)>
10.4 µM

$$$$

====

test-target: Ecdysone receptor (Bombyx mori)
assay-protocol: Agonist activity against Bombyx mori ecdysone receptor
Format: functional

>  <structure>
COc1cccc(C(=O)NC2(C(=O)c3ccccc3C)CCCC2)c1C

>  <Fold induction>
30

$$$$
>  <structure>
CCC(CC)(NC(=O)c1cccc(OC)c1C)C(=O)c1ccc(F)cc1

>  <Fold induction>
60

$$$$
>  <structure>
COc1cccc(C(=O)NC2(C(=O)c3ccccc3)CCCC2)c1C

>  <Fold induction>
71

$$$$

====

Tested on: HEK293
assay-protocol: Dose response transactivation assay result expressed as dose affording 50% of max transactivation
Assay type: functional
cond: Homo sapiens, read-out: LC50
EC50 (transactivation) reference
assay-readout: EC50 (transactivation) (µM)

>  <compound>
COc1cccc(C(=O)NC2(C(=O)c3ccccc3)CCCC2)c1C

>  <assay-readout>
EC50 (transactivation)

>  <numeric-value>
2.7

$$$$
>  <compound>
CCC(CC)(NC(=O)c1cccc(OC)c1C)C(=O)c1ccccc1OC

>  <assay-readout>
EC50 (transactivation)

>  <numeric-value>
6.2

$$$$
>  <compound>
COc1cccc(C(=O)NC(C)(C(=O)c2cccc(C)c2)C(C)C)c1C (stereo not drawn)

>  <assay-readout>
EC50 (transactivation)

>  <numeric-value>
8.6

$$$$

====

test-target: Ecdysone receptor (Bombyx mori) (UniProt P49881)
assay-protocol: Agonist activity against Bombyx mori ecdysone receptor
Format: functional

>  <compound>
CCC(CC)(NC(=O)c1cccc(OC)c1C)C(=O)c1cccc(C)c1

>  <test-target>
Ecdysone receptor (Bombyx mori) (UniProt P49881)

>  <Fold induction>
525

$$$$
>  <compound>
COc1ccccc1C(=O)C1(NC(=O)c2cccc(OC)c2C)CCCC1

>  <test-target>
Ecdysone receptor (Bombyx mori) (UniProt P49881)

>  <Fold induction>
1200

$$$$
>  <compound>
COc1cccc(C(=O)C(C)(NC(=O)c2cccc(OC)c2C)C(C)C)c1 (stereo unspecified)

>  <test-target>
Ecdysone receptor (Bombyx mori) (UniProt P49881)

>  <Fold induction>
35

$$$$
>  <compound>
COc1cccc(C(=O)NC(C)(C(=O)c2ccccc2)C(C)C)c1C (stereo unspecified)

>  <test-target>
Ecdysone receptor (Bombyx mori) (UniProt P49881)

>  <Fold induction>
71

$$$$
>  <compound>
CCC(CC)(NC(=O)c1cccc(OC)c1C)C(=O)c1ccccc1C

>  <test-target>
Ecdysone receptor (Bombyx mori) (UniProt P49881)

>  <Fold induction>
5

$$$$
>  <compound>
COc1ccccc1C(=O)C(C)(NC(=O)c1cccc(OC)c1C)C(C)C (stereo unspecified)

>  <test-target>
Ecdysone receptor (Bombyx mori) (UniProt P49881)

>  <Fold induction>
599

$$$$
>  <compound>
O=C(NC1(C(=O)c2ccccc2)CCCC1)c1ccccc1

>  <test-target>
Ecdysone receptor (Bombyx mori) (UniProt P49881)

>  <Fold induction>
2

$$$$
>  <compound>
CCC(CC)(NC(=O)c1cccc(OC)c1C)C(=O)c1cccc(OC)c1

>  <test-target>
Ecdysone receptor (Bombyx mori) (UniProt P49881)

>  <Fold induction>
256

$$$$
>  <compound>
COc1cccc(C(=O)NC2(C(=O)c3ccc(F)cc3)CCCC2)c1C

>  <test-target>
Ecdysone receptor (Bombyx mori) (UniProt P49881)

>  <Fold induction>
218

$$$$
>  <compound>
Cc1ccccc1C(=O)NC1(C(=O)c2ccccc2)CCCC1

>  <test-target>
Ecdysone receptor (Bombyx mori) (UniProt P49881)

>  <Fold induction>
2

$$$$
>  <compound>
COc1cccc(C(=O)NC2(C(=O)c3ccccc3)CCCC2)c1

>  <test-target>
Ecdysone receptor (Bombyx mori) (UniProt P49881)

>  <Fold induction>
2

$$$$
